biological target: UniProt Q72KB9; assay: Isothermal titration calorimetry (ITC) binding measurements with RfbF; settings: ITC, 25 °C, ligand titrated into 110 µM RfbF
Sequence (Q72KB9 entry or part of it): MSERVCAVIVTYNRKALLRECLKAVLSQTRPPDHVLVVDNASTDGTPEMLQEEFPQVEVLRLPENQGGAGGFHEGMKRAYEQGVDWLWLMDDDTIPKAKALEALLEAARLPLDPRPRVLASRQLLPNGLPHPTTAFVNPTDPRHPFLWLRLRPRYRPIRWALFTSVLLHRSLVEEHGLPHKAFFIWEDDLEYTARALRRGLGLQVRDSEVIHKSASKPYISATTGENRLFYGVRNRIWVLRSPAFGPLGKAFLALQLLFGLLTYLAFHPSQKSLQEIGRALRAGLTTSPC

| compound | ΔS |
| --- | --- |
| CC1OC(OP(=O)(O)OP(=O)(O)OCC2OC(n3cnc4c(=O)[nH]c(N)nc43)C(O)C2O)C(O)C(O)C1O (stereo not drawn) | N/B |
| Cc1cn(C2CC(O)C(COP(=O)(O)OP(=O)(O)OC3OC(C)C(O)C(O)C3O)O2)c(=O)[nH]c1=O [dTDP-β-L-Rha, reference compound] | -6.43 (0.68) cal/mol·K |
| Cc1cn(C2CC(O)C(COP(=O)(O)OP(=O)(O)OC3OC(C)C(O)C(O)C3O)O2)c(=O)[nH]c1=O [dTDP-α-L-Rha, dTDP-a-L-rhamnose] | N/B |
| Cc1cn(C2CC(O)C(COP(=O)(O)OP(=O)(O)OC3OC(C)C(O)C(O)C3O)O2)c(=O)[nH]c1=O [dTDP-β-L-6dTal, dTDP-6-deoxy-β-L-talose] | -28.8 (3.7) cal/mol·K |
| CC1OC(OP(=O)(O)OP(=O)(O)OCC2OC(n3ccc(=O)[nH]c3=O)C(O)C2O)C(O)C(O)C1O (stereo not drawn) | -51.2 (14.7) cal/mol·K |
| CC(=O)NC1C(OP(=O)(O)OP(=O)(O)OCC2OC(n3ccc(=O)[nH]c3=O)C(O)C2O)OC(CO)C(O)C1O [UDP-α-D-GlcNAc, UDP-a-N-acetyl-D-glucosamine, reference compound] | N/B |
